Measured values drawn from PubChem BioAssay (NCATS) for this set.

Below: a set of entries, each annotated with reported remaining proliferation (% of control), lower = more inhibition.
# assay_name: qHTS profiling for inhibitors of Plasmodium falciparum (HB3) proliferation (AID 743324);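 further: 100% = DMSO vehicle wells and 0% = artemisinin-treated control wells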
# reported_conditions: Plasmodium falciparum HB3 blood-stage proliferation; at 28.7 µM (top of the series)
metric: remaining proliferation (% of control), lower = more inhibition (%)

| query_smiles | unit_name | reading |
| --- | --- | --- |
| CC(C)(O)CCc1ccc(OCc2cc(-c3cccc(OC(F)F)c3)c3ncccc3c2)cc1 | % | 15.5 |
| C#Cc1cccc(Nc2ncnc3cc(OC)c(OCCCCCCC(=O)NO)cc23)c1 | % | -0.395 |
| O=C(NCCS(=O)(=O)c1ccc(C(F)(F)F)cn1)c1ccc(Cl)cc1 | % | 99.7 |
| C[C@@]12O[C@@H](C[C@]1(O)CO)n1c3ccccc3c3c4c(c5c6ccccc6n2c5c31)CNC4=O | % | 0.698 |
| Cc1cnc(-c2cnc(NCCNc3ccc(C#N)cn3)nc2-c2ccc(Cl)cc2Cl)[nH]1 | % | 53.7 |
| COc1cc(OC2CCN(C)CC2)ccc1Nc1ncc2c(n1)n(C1CCCC1)c(=O)n2C | % | 1.94 |
| N#Cc1c(O)c2c(-c3ccc(-c4ccccc4O)cc3)csc2[nH]c1=O | % | 87.6 |
| C=C1C(=CC=C2CCC[C@]3(C)[C@@H]([C@H](C)C=C[C@H](C)C(C)C)CC[C@@H]23)C[C@@H](O)C[C@@H]1O | % | 92.2 |
| CN(C)CC=CC(=O)Nc1cc2c(Nc3ccc(F)c(Cl)c3)ncnc2cc1O[C@H]1CCOC1 | % | 0.188 |

* * *

# assay_name: qHTS profiling for inhibitors of Plasmodium falciparum (3D7) proliferation (AID 743322);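 further: infected erythrocytes exposed to compound for 72 h before lysis; 100% = DMSO vehicle wells and 0% = 0.29 µM artemisinin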
# reported_conditions: P. falciparum 3D7 proliferation; at 28.7 µM (top of the series)
Below, each of the molecules is paired with its reported remaining parasite growth % (stronger effect = lower value) value.
metric: remaining parasite growth % (stronger effect = lower value) (%)

| molecule | reading |
| --- | --- |
| C=C1C(=CC=C2CCC[C@]3(C)[C@@H]([C@H](C)C=C[C@H](C)C(C)C)CC[C@@H]23)C[C@@H](O)C[C@@H]1O | 88.6 |
| CC[C@@H]1C(=O)N(C)c2cnc(Nc3ccc(C(=O)NC4CCC(N5CCN(CC6CC6)CC5)CC4)cc3OC)nc2N1C(C)C (some centres undefined) | -0.343 |
| CC1(C)CCC(c2ccc(Cl)cc2)=C(CN2CCN(c3ccc(C(=O)NS(=O)(=O)c4ccc(N[C@H](CCN5CCOCC5)CSc5ccccc5)c(S(=O)(=O)C(F)(F)F)c4)cc3)CC2)C1 | 0.209 |
| O=C(NCCS(=O)(=O)c1ccc(C(F)(F)F)cn1)c1ccc(Cl)cc1 | 98.8 |

* * *

# assay_name: Quantitative High-Throughput drug screen in 47 multiple myeloma cell lines against the NCATS MIPE library collection: Karpas417_ECACC cell viability assay (AID 1918961)
# reported_conditions: Karpas417 myeloma viability, CellTiter-Glo ATP luminescence, 48 h
Results filed as inconclusive are left out. Activity calls are given as the source filed them. Calls follow the shape of the dose curve; as a rule, active = well fitted cell-killing curve with a large enough effect; inconclusive = small, poorly fitted or top-dose-only effect, or effect the other way; inactive = no such curve, though single readings can be large or run the other way.
Outcomes: active, inactive

| query_smiles | classification |
| --- | --- |
| Nc1ccccc1NC(=O)c1ccc(CNc2nccc(-c3cccnc3)n2)cc1 | active |
| COc1ccc(OC)c(-c2nnc3ccc(-c4ccc(OC)c(O[C@@H]5CCOC5)c4)nn23)c1 | active |
| CC(C)(C)c1cc(C(C)(C)C)c(NC(=O)c2c[nH]c3ccccc3c2=O)cc1O | inactive |
| Cc1ccc(NC(=O)C2(c3ccc4c(c3)OC(F)(F)O4)CC2)nc1-c1cccc(C(=O)O)c1 | active |
| CCN1CCN(Cc2ccc(-c3cc4c(N[C@H](C)c5ccccc5)ncnc4[nH]3)cc2)CC1 | active |
| Cc1cc(CN2CCN(c3c(Br)cnc4nc(-c5ccc(N6CCN(C)CC6)cc5)[nH]c34)CC2)no1 | inactive |
| COc1ccc(F)c(F)c1C(=O)c1cnc(NC2CCN(S(C)(=O)=O)CC2)nc1N | active |
| CNC(=O)c1c(F)cccc1Nc1nc(Nc2cc3c(cc2OC)CCN3C(=O)CN(C)C)nc2[nH]ccc12 | inactive |
| COC(=O)c1ccc2c(C(=Nc3ccc(N(C)C(=O)CN4CCN(C)CC4)cc3)c3ccccc3)c(O)[nH]c2c1 | active |
| CCC(=C(c1ccccc1)c1ccc(OCCN(C)C)cc1)c1ccccc1 | active |
| CC(C)(C)NC(=O)[C@H]1CN(Cc2cccnc2)CCN1C[C@@H](O)C[C@@H](Cc1ccccc1)C(=O)N[C@H]1c2ccccc2C[C@H]1O | inactive |
| Cc1cc(Nc2cc(N3CCN(C)CC3)nc(Sc3ccc(NC(=O)C4CC4)cc3)n2)n[nH]1 | active |
| COc1cc2ncn(-c3cc(OCc4ccccc4C(F)(F)F)c(C(N)=O)s3)c2cc1OC | active |
| CCCCOc1c(C(=O)c2c(F)cc(C)cc2F)cnc2n[nH]cc12 | active |
| O=C(C=Cc1c(C(=O)O)[nH]c2cc(Cl)cc(Cl)c12)Nc1ccccc1 | inactive |
| CC(C)=CCCC(C)=CCCC(C)=CCSc1ccccc1C(=O)O | active |
| COc1cc(Nc2ncc(F)c(Nc3ccc4c(n3)N(COP(=O)(O)O)C(=O)C(C)(C)O4)n2)cc(OC)c1OC | active |
| Nc1nc(NCCNc2ncc(-n3ccnc3)c(-c3ccc(Cl)cc3Cl)n2)ccc1[N+](=O)[O-] | inactive |
| CN[C@H]1CCc2cc(OC)c(OC)c(OC)c2-c2ccc(OC)c(=O)cc21 | active |
| Cc1nc2ccc(CN(C)c3ccc(C(=O)N[C@@H](CCC(=O)O)C(=O)O)s3)cc2c(=O)[nH]1 | inactive |
| CC1(C)OC2=C(C(=O)c3ccccc3C2=O)[C@H](NCc2ccccc2)[C@H]1O | active |
| Cc1cc(Nc2cc(NC(=O)c3c(Cl)cccc3Cl)ccn2)nc(N)n1 | active |
| Cc1c(C)n(Cc2ccc(-c3ccccc3C(=O)O)cc2)c2ccc(C(=O)N[C@@H](C)c3ccc([N+](=O)[O-])cc3)cc12 | active |
| CN1CCN(Cc2ccc(NC(=O)Nc3ccc(Oc4cc(NC(=O)C5CC5)ncn4)cc3)cc2C(F)(F)F)CC1 | inactive |
| C=C1C(=CC=C2CCC[C@]3(C)[C@@H]([C@H](C)C=C[C@H](C)C(C)C)CC[C@@H]23)C[C@@H](O)C[C@@H]1O | active |
| CC(=O)SC[C@@H](C)C(=O)N1CCC[C@H]1C(=O)N[C@@H](Cc1ccccc1)C(=O)O | inactive |
| CC(C)c1noc(N2CCC(COc3ccc(-c4ccc(S(C)(=O)=O)cc4)nc3)CC2)n1 | inactive |
| CNC(=O)c1cc(Oc2ccc(NC(=O)Nc3cc(C(C)(C)C)nn3-c3ccc4ncccc4c3)c(F)c2)ccn1 | active |
| Cc1ccc(-c2ncn(-c3ccc(Nc4nccc(-c5cccc(N6CCOCC6)c5)n4)cc3)n2)cn1 | active |
| Cc1ccc(C(N)=O)cc1Nc1nccc(-c2cn(C(C)C)c3cnccc23)n1 | active |
| CC(=O)c1c(C)c2cnc(Nc3ccc(N4CCNCC4)cn3)nc2n(C2CCCC2)c1=O | active |
| COC(=O)[C@]12CCC(C)(C)C[C@@H]1[C@@H]1C(=O)C=C3[C@@]4(C)C=C(C#N)C(=O)C(C)(C)[C@@H]4CC[C@@]3(C)[C@]1(C)CC2 | active |
| NC(=O)c1c(OCc2c(F)cc(Br)cc2F)nsc1NC(=O)NCCCCN1CCCC1 | inactive |
| CC(C)C[C@H](NC(=O)CNC(=O)c1cc(Cl)ccc1Cl)B(O)O | active |
